System: C-X-C chemokine receptor type 4 (Homo sapiens, UniProt P61073) | Read-out: IC50 | Origin: multiple publications

Below, 5 molecules whose answers are already recorded.
// fetch IC50; item: CCOCc1c([C@H]2CCC[C@@H](c3ncccc3Cl)N2C)nc2cccc(N3CCN(C)CC3)n12 ; system: C-X-C chemokine receptor type 4 (Homo sapiens, UniProt P61073) 0.01 to 100 nM

// fetch IC50; item: CN1CCN(c2cccc3nc([C@H]4CCC[C@@H](c5ncccc5Cl)N4)cn23)CC12CC2 ; system: C-X-C chemokine receptor type 4 (Homo sapiens, UniProt P61073) 100 to 1000 nM

// fetch IC50; item: N[C@@H](CCC(=O)NCCN1CCC(Nc2nc(NCc3nnc(CCCNCCCNC4CCCCC4)o3)nc3ccccc23)CC1)C(=O)NCCP(=O)(O)O ; system: C-X-C chemokine receptor type 4 (Homo sapiens, UniProt P61073) 100 to 1000 nM

// fetch IC50; item: Cc1cccnc1[C@@H]1CCC[C@H](c2nc3cccc(N4CCN(C)CC4)n3c2COC2CC2)N1C ; system: C-X-C chemokine receptor type 4 (Homo sapiens, UniProt P61073) 0.01 to 100 nM

// fetch IC50; item: Cc1cccnc1[C@@H]1CCC[C@H](c2nc3cccc(N4CCN(C)CC4)n3c2Cl)N1C ; system: C-X-C chemokine receptor type 4 (Homo sapiens, UniProt P61073) 0.01 to 100 nM

More entries:
// fetch IC50; item: Cc1cccnc1[C@@H]1CCC[C@H](c2cn3c(-c4ccnn4C)cccc3n2)N1 ; system: C-X-C chemokine receptor type 4 (Homo sapiens, UniProt P61073) ≥ 1000 nM

// fetch IC50; item: Cc1cc(NC2CCNCC2)nc(NCc2noc(CCCNCCCNC3CCCCC3)n2)n1 ; system: C-X-C chemokine receptor type 4 (Homo sapiens, UniProt P61073) < 50 nM

// fetch IC50; item: CN1CCN(c2cccc3nc([C@H]4CCC[C@@H](c5ncccc5C5CC5)N4)cn23)CC1 ; system: C-X-C chemokine receptor type 4 (Homo sapiens, UniProt P61073) 0.01 to 100 nM

// fetch IC50; item: N[C@@H](CCC(=O)N1CCC(Nc2nc(NCc3nc(CCCNCCCNC4CCCCC4)co3)nc3ccccc23)CC1)C(=O)O ; system: C-X-C chemokine receptor type 4 (Homo sapiens, UniProt P61073) 50 to 100 nM

// fetch IC50; item: CN1CCN(c2cccc3nc([C@H]4CCC[C@@H](c5ncccc5C(F)(F)F)N4C)c(Cl)n23)CC1 ; system: C-X-C chemokine receptor type 4 (Homo sapiens, UniProt P61073) 0.01 to 100 nM

// fetch IC50; item: Cc1cccnc1[C@@H]1CCC[C@H](c2nc3cccc(N4CCN(C)CC4)n3c2COC(C)C)N1C ; system: C-X-C chemokine receptor type 4 (Homo sapiens, UniProt P61073) 0.01 to 100 nM

// fetch IC50; item: N=C(N)NCCC[C@@H]1NC(=O)[C@H](CCCNC(=N)N)NC(=O)[C@@H](Cc2ccc(O)cc2)NC(=O)CNC(=O)[C@H](Cc2nc3ccccc3s2)NC1=O ; system: C-X-C chemokine receptor type 4 (Homo sapiens, UniProt P61073) 18 nM

// fetch IC50; item: Cc1cccnc1[C@@H]1CCC[C@H](c2nc3ccccn3c2N2CCN(C)CC2)N1C ; system: C-X-C chemokine receptor type 4 (Homo sapiens, UniProt P61073) 0.01 to 100 nM

// fetch IC50; item: Cc1cccnc1[C@@H]1CCC[C@H](c2nc3ccccn3c2CCC#N)N1 ; system: C-X-C chemokine receptor type 4 (Homo sapiens, UniProt P61073) ≥ 1000 nM

// fetch IC50; item: Cc1cccnc1[C@@H]1CCC[C@H](c2nc3cccc(N4CCN(C(C)C)CC4)n3c2CO)N1C ; system: C-X-C chemokine receptor type 4 (Homo sapiens, UniProt P61073) 0.01 to 100 nM

// fetch IC50; item: c1ccc2c(NC3CCNCC3)nc(NCCc3cn(CCCCNCCCNC4CCCCC4)cn3)nc2c1 ; system: C-X-C chemokine receptor type 4 (Homo sapiens, UniProt P61073) 50 to 100 nM
